Exercise: for every item that follows, state its recorded Potency.
Assay: qHTS for Inhibitors of binding or entry into cells for Lassa Virus; also: potency is read from the fitted curve at half-maximal effect
Details: Lassa virus pseudotyped entry inhibition, cell-based qHTS; series mostly up to 49.2 µM
In all, about 18,000 compounds went through this assay and about 750 (4.2%) were called active. Not shown: some 13% with an inconclusive outcome. Many of the other results were omitted from the sample, so actives are more common in it than they were.

Req: Supply recorded Potency for Oc1c(Cl)cc(Cl)c(Cl)c1Cc1c(O)c(Cl)cc(Cl)c1Cl here.
Resp: 6.31 µM (active)

Req: Supply recorded Potency for C#C[C@]1(OC(=O)CCCCCC)CC[C@H]2[C@@H]3CCC4=CC(=O)CC[C@@H]4[C@H]3CC[C@@]21C here.
Resp: 31.6 µM (active)

Req: Supply recorded Potency for COc1ccc(C[C@H](N)C(=O)N[C@@H]2[C@H](O)[C@H](n3cnc4c(N(C)C)ncnc43)O[C@@H]2CO)cc1 here.
Resp: 2.51 µM (active)

Req: Supply recorded Potency for C[C@@]12CC[C@H]3[C@@H](CC[C@]4(O)C[C@H](O)CC[C@@]34C=O)[C@]1(O)CC[C@@H]2C1=CC(=O)OC1 here.
Resp: 1.26 µM (active)

Req: Supply recorded Potency for COc1ccc(CC(N)C(=O)NC2C(O)[C@H](n3cnc4c(N(C)C)ncnc43)O[C@@H]2CO)cc1 (stereo not given in full) here.
Resp: 3.98 µM (active)

Req: Supply recorded Potency for COc1c(O)c2c(=O)cc(OC)c3c4c(OC)cc(=O)c5c(O)c(OC)c6c(c(c1C[C@@](C)(O)[C@H]6C(C)=O)c23)c54 here.
Resp: 35.5 µM (active)

Req: Supply recorded Potency for CO[C@@H]1C[C@@H](C[C@H]2CC[C@H](C)[C@@H]([C@@H](C)C(=O)O)O2)O[C@]2(O[C@](C)([C@H]3CC[C@@](C)(C4OC([C@H]5O[C@@](O)(CO)[C@H](C)C[C@@H]5C)C[C@@H]4C)O3)C[C@H]2C)[C@@H]1C (stereo not given in full) here.
Resp: 3.16 µM (active)

Req: Supply recorded Potency for CC[C@@H]1Cc2cc(O)ccc2C2=C1c1ccc(O)cc1C[C@H]2CC here.
Resp: 20 µM (active)

Req: Supply recorded Potency for N#Cc1c(Cl)c(Cl)c(Cl)c(C#N)c1Cl here.
Resp: 2.24 µM (active)

Req: Supply recorded Potency for CN1CCCC1CCO[C@@](C)(c1ccccc1)c1ccc(Cl)cc1 (stereo not given in full) here.
Resp: 12.6 µM (active)
